These entries and their values trace back to PubChem BioAssay (NCATS).

test system: CP268; assay: qHTS profiling for inhibitors of Plasmodium falciparum proliferation (AID 504749); also: nearly all actives have a fitted effect of over 60% in size; conditions: P. falciparum in erythrocytes, SYBR Green DNA, 72 h; series mostly up to 28.7 µM
Results filed as inconclusive are left out. Calls of active or inactive are those of the source. Calls follow the shape of the dose curve; as a rule, active = well fitted inhibition curve with a large enough effect; inconclusive = small, poorly fitted or top-dose-only effect; inactive = flat fitted curve, though single readings scatter.
One label from this list, please: 1 for active, -1 for inactive

Check out these entries, answers already filled in.
• CN(C)CC/C=C1\c2ccccc2Sc2ccc(Cl)cc21 = -1
• NC(=NCCCCCCN=C(N)/N=C(\N)Nc1ccc(Cl)cc1)/N=C(\N)Nc1ccc(Cl)cc1 = 1
• CCOc1ccc(Cc2nccc3cc(OCC)c(OCC)cc23)cc1OCC = -1
• C[C@H]1[C@H](NC(=O)/C(=N/OC(C)(C)C(=O)O)c2csc(N)n2)C(=O)N1S(=O)(=O)O (stereo in doubt) = -1

Prompt: I'd appreciate the recorded outcome for `CCCCCCCCCCCCCCCC[N+](C)(C)CC` from this test.
Response: 1
